Assay: Pharmacokinetic evaluation following a single oral and intravenous administration
Assay type: in vivo, CD1 mouse
Details: CD1, mouse, plasma, po, 5 mg/kg, Table 12, PO Dose: 5 mg/kg, Mouse 6; read-out: Cmax
assay readout: Cmax (ng/mL)
Report the value in ng/mL with no unit label.

Return the recorded Cmax value; entry: CC(=O)N[C@@H](Cc1ccc(CN(C)C)cc1)c1nnc(-c2cccc(OC(F)(F)F)c2)s1 [Compound 42320]
122

* * *

Test: Pharmacokinetic evaluation following a single oral and intravenous administration
Assay type: in vivo, CD1 mouse
Conditions: CD1, mouse, plasma, po, 5 mg/kg, Table 12, PO Dose: 5 mg/kg, Mouse 4; read-out: AUCInf
assay readout: AUC(0-inf) (ng·h/mL)
Give the value in ng·h/mL but do not write ng·h/mL after it.

For the compound CC(=O)N[C@@H](Cc1ccc(CN(C)C)cc1)c1nnc(-c2cccc(OC(F)(F)F)c2)s1 , report AUC(0-inf).
1110

* * *

Assay: Pharmacokinetic evaluation following a single oral and intravenous administration
Assay type: in vivo, CD1 mouse
Conditions: CD1, mouse, plasma, iv, 1 mg/kg, Table 10, IV Dose: 1 mg/kg, Mouse 1; read-out: AUCInf
assay readout: AUC(0-inf) (ng·h/mL)
Give just the numeric value; ng·h/mL need not be written.

Report AUC(0-inf), nothing else, for this compound: CC(=O)N[C@@H](Cc1ccc(CN(C)C)cc1)c1nnc(-c2cccc(OC(F)(F)F)c2)s1
183

* * *

Test: Pharmacokinetic evaluation following a single oral and intravenous administration
Format: in vivo, CD1 mouse
Conditions: CD1, mouse, plasma, po, 5 mg/kg, Table 12, PO Dose: 5 mg/kg, Mouse 6; read-out: MRTInf—obs
assay readout: MRT inf (h)
Your answer should be a plain number; it is taken to be in h.

Supply measured MRT inf of CC(=O)N[C@@H](Cc1ccc(CN(C)C)cc1)c1nnc(-c2cccc(OC(F)(F)F)c2)s1 in your reply.
5.84

* * *

Experiment: Pharmacokinetic evaluation following a single oral and intravenous administration
Format: in vivo, CD1 mouse
Details: CD1, mouse, plasma, po, 5 mg/kg, Table 5, PO Dose: 5 mg/kg, 2 h, Mouse 5; read-out: Concentration
assay readout: concentration at 2 h (ng/mL)
Give just the number in ng/mL; leave the unit off.

Tell me concentration at 2 h reported for CNCc1ccc(C[C@H](NC(C)=O)c2nnc(-c3cccc(OC(F)(F)F)c3)s2)cc1
140

* * *

Test: Pharmacokinetic evaluation following a single oral and intravenous administration
Assay type: in vivo, CD1 mouse
Settings: CD1, mouse, plasma, po, 5 mg/kg, Table 6, PO Dose: 5 mg/kg, Mouse 5; read-out: AUClast
assay readout: AUC(0-t) (ng·h/mL)
Entry rule: numbers only, all in ng·h/mL.

Return reported AUC(0-t). Input molecule: CNCc1ccc(C[C@H](NC(C)=O)c2nnc(-c3cccc(OC(F)(F)F)c3)s2)cc1
1790

* * *

Assay: Pharmacokinetic evaluation following a single oral and intravenous administration
Format: in vivo, CD1 mouse
Conditions: CD1, mouse, plasma, po, 5 mg/kg, Table 11, PO Dose: 5 mg/kg, 8 h, Mouse 5; read-out: Concentration
assay readout: concentration at 8 h (ng/mL)
Dear colleague, please return just the value in ng/mL, with no unit written.

Recall and state the measured concentration at 8 h for CC(=O)N[C@@H](Cc1ccc(CN(C)C)cc1)c1nnc(-c2cccc(OC(F)(F)F)c2)s1 [Compound 42320] .
37.2
